Below: a set of entries, each annotated with reported normalized RNA/DNA level without ligand (log10).
B1: library; a variant is named by its letters at N, in order (parent)
chain: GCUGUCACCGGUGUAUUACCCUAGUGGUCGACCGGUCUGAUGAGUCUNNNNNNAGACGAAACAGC

Variants of: B1
Assay: normalized RNA/DNA level without ligand (relative to sTRSVctl = 100) (log10 (% of sTRSVctl)); ligand: hypoxanthine (xanthine aptamer); higher = less ribozyme self-cleavage, higher mRNA level
Conditions: HEK293T, reporter: mCherry (pCS4076), ligand present: no
The answer should be written as a number, with no unit following it.

Entry `GCUGUCACCGGUGUAUUACCCUAGUGGUCGACCGGUCUGAUGAGUCUGACAGCAGACGAAACAGC` : reported normalized RNA/DNA level without ligand (log10) = ?
1.74

Entry `GCUGUCACCGGUGUAUUACCCUAGUGGUCGACCGGUCUGAUGAGUCUAAUGGUAGACGAAACAGC` : reported normalized RNA/DNA level without ligand (log10) = ?
1.59

Entry `GCUGUCACCGGUGUAUUACCCUAGUGGUCGACCGGUCUGAUGAGUCUGACCAAAGACGAAACAGC` : reported normalized RNA/DNA level without ligand (log10) = ?
1.81

Cited source: the supplement of paper PMC6757056
